assay.procedure: Oral toxicity according to OECD test guideline TG423
Type: in vivo
test.parameters: in vivo, 2000 mg/kg; OECD TG423, oral
observable: LD50

> print(dat)
            item.smiles  observable    data.value
1  C=CC(=O)N(C)CC(=O)OC        LD50  ≥ 2000 mg/kg
